Target: SARS-CoV-2 spike protein S on live virus, Alpha variant (SARS-CoV-2 (Alpha variant), UniProt P0DTC2 14-1273)
Assay: cell-based or functional assay

{"Binder": "NRCoV2-14 VHH-Fc (Fc fusion, bivalent VHH-Fc) EVQLVSSGGGLVQAGGSLRLSCEASGTTFSHYAVGWYRQAPGKQREWVASISVFGSTTYGGSVAGRFTISRDNDKNTVDLQMNSLKPEDTAVYYCHAVNADIGGDYWGQGTQVTVSS", "Unit": "pM", "LVNA IC50": 880}
{"Binder": "NRCoV2-05 VHH-Fc (Fc fusion, bivalent VHH-Fc) EVKLVQSGGGLVQPGGSLRLSCAASGFIFSNYAMNWVRQAPGKGLEWVSGINSGGGDTRYADSVKGRFTVSRDNAKNTLYLQMNSLKPEDTGVYYCSKGPVSSYYGSGYDYRGQGTQVTVSS", "Unit": "pM", "LVNA IC50": 30}
{"Binder": "NRCoV2-12 VHH-Fc (Fc fusion, bivalent VHH-Fc) EVQLQQSGGGLVQAGGSLRLSCAASGRTFRNYVMGWFRQAPQAPGKDHEFVAAISWGGTEIYYADSVKGRFTISRDNAKNTVYLQMNSLKPEDTAVYYCAADRGLSYYYTRTTEYNYWGQGTQVTVSS", "Unit": "pM", "LVNA IC50": 1350}
{"Binder": "NRCoV2-07 VHH-Fc (Fc fusion, bivalent VHH-Fc) QVQLVQSGGGLVQPGGSLRLSCAASGVTLDYYAIGWFRQAPGKEREAVSCISSNGRRNHYVASVRGRFTISRDNAKSTVYLQMNSLKPEDTAVYYCAAVQDVHGDNYYCTSPNEYNVWGQGTQVTVSS", "Unit": "pM", "LVNA IC50": 420}

Reference source for all entries: patent US20240270826A1
